Reference for the values: PubChem BioAssay AID2612

- PROTOCOL TEXT: compound effect on polymyxin resistance, Typhi, OD600 (AID 2612)
- MEASUREMENT PARAMETERS: Salmonella Typhi WT vs phoP-, polymyxin IC50 shift, OD600 24 h; measured here: polymyxin IC50 shift, WT strain; at 150 µM
Hi! Just check whether IC50 shift is below -1. Below gives 1.0, equal or above gives 0.0.

Some solved entries appear below for comparison.
[[record]]
molecule = "S=C(NCc1ccc(Cl)cc1)Nc1ccncc1"
class = 0.0

[[record]]
molecule = "CCn1cc(C(=O)O)c(=O)c2cc(F)c(N3CCN(C(=S)NC(=O)c4ccccc4Cl)CC3)cc21"
class = 1.0

[[record]]
molecule = "Cc1ccc(Nc2cc(C)c3c(O)cccc3n2)cc1C"
class = 0.0

[[record]]
molecule = "O=C1C2=C(Nc3ccccc3SC2c2ccco2)c2ccccc21 (stereo unspecified)"
class = 0.0

[[record]]
molecule = "COc1c(N2CCN(C(=S)NCc3ccccc3)C(C)C2)c(F)cc2c(=O)c(C(=O)O)cn(C3CC3)c12 (stereo unspecified)"
class = 1.0


stdin: Is IC50 shift strictly under -1 for the entry `O=C(Nc1ccc(Cl)cc1)N1CCCN(Cc2ccccc2F)C1` ?
stdout: 1.0
